Target: UniProtKB K0C216
Experiment: biochemical
Conditions: 200 µM
Criterion: Inhibition rate (%) NA (H5N1) meeting or surpassing 70%. Met: Yes. Not met: No.

Previously resolved entries follow.
• C/C(=C\[C@@H](O)C[C@@H](C)[C@H]1CC(=O)[C@@]2(C)C3=C(C(=O)C[C@]12C)[C@@]1(C)CC[C@H](O)C(C)(C)[C@@H]1CC3=O)C(=O)O = No
• C/C(=C/CC[C@@H](C)[C@H]1CC[C@@]2(C)C3=CC[C@H]4C(C)(C)C(=O)CC[C@]4(C)C3=CC[C@]12C)C(=O)O = No
• CC(=O)O[C@H]1C[C@H]([C@H](C)CC/C=C(\C)C(=O)O)[C@@]2(C)CC=C3C(=CC[C@H]4C(C)(C)C(=O)CC[C@]34C)[C@]12C = Yes
• C/C(C=O)=C\CC[C@@H](C)[C@H]1CC[C@@]2(C)C3=CC[C@H]4C(C)(C)[C@@H](O)CC[C@]4(C)C3=CC[C@]12C = No
• CC(=O)O[C@H]1C[C@H]([C@H](C)CC/C=C(\C)C(=O)O)[C@@]2(C)CC=C3C(=CC[C@H]4C(C)(C)[C@@H](O)CC[C@]34C)[C@]12C = Yes

# next molecule below
Ask: Reported Inhibition rate (%) NA (H5N1) at or above 70%? C/C(=C\C(=O)CC(C)C(=O)O)C1CC(O)C2(C)C3=C(C(=O)CC12C)C1(C)CCC(O)C(C)(C)C1CC3O (stereo not drawn)
Reply: No

Origin of the recorded values: paper PMC4549708
